# Tested on: A498
# test: NCI tumour cell line growth inhibition, 48 h
Calls of active or inactive are those of the source. Cut-off read from the data, not from the text of the source: active = GI50 up to about 1.1 µM and inactive = higher.
readout: GI50

Prompt line: Recall the recorded GI50 for COc1ccc2nc3cc(Cl)ccc3c(Sc3ccc([N+](=O)[O-])cc3C)c2c1 with A498 and state it.
Response line: > 100 µM (inactive)

Prompt line: Recall the recorded GI50 for O=c1cccc2n1C[C@H]1CNC[C@H]2C1 with A498 and state it.
Response line: > 100 µM (inactive)

Prompt line: Recall the recorded GI50 for COC1=C(NC(C)=O)C(=O)c2nc3n(c2C1=O)CCC3 with A498 and state it.
Response line: 23.6 µM (inactive)

Prompt line: Recall the recorded GI50 for Cc1cc(C(C)(C)C)cc(Cc2cc(C(C)(C)C)cc(Cc3cc(C(C)(C)C)cc(C)c3O)c2O)c1O with A498 and state it.
Response line: 19.5 µM (inactive)

Prompt line: Recall the recorded GI50 for CC(=O)OC[C@]1(C(=O)C(O)c2ccoc2)[C@H](C)CC[C@@]23COC(=O)C2=CCC[C@@H]31 (stereo not given in full) with A498 and state it.
Response line: > 10 µM (inactive)

Prompt line: Recall the recorded GI50 for Cn1nc(C(=O)N2CC(CCl)c3c2cc(N)c2ccccc32)cc1NC(=O)Nc1cc(C(=O)N2CC(CCl)c3c2cc(N)c2ccccc32)nn1C (stereo not given) with A498 and state it.
Response line: 8.69 µM (inactive)

Prompt line: Recall the recorded GI50 for O=C1CCC(=O)c2ccccc2N1 with A498 and state it.
Response line: > 100 µM (inactive)

Prompt line: Recall the recorded GI50 for CN(C)CCCCN1c2ccccc2Sc2ccc(N=[N+]=[N-])cc21 with A498 and state it.
Response line: 8.73 µM (inactive)

Prompt line: Recall the recorded GI50 for Clc1ccc2c(NCCNc3ccnc4cc(Cl)ccc34)ccnc2c1 with A498 and state it.
Response line: 16.9 µM (inactive)

Prompt line: Recall the recorded GI50 for Cn1c(=O)n2n(c1=O)Cc1cccc3cccc(c13)C2 with A498 and state it.
Response line: > 100 µM (inactive)

----------
# System: SF-295
# test: NCI tumour cell line growth inhibition, 48 h
Active and inactive are the calls of the source. No stated cut-off is given here; in the data, active = GI50 up to about 1.1 µM and inactive = higher.
readout: GI50

c1ccc(C2C(=P(c3ccccc3)(c3ccccc3)c3ccccc3)P=PC2[P+](c2ccccc2)(c2ccccc2)c2ccccc2)cc1.c1ccc([B-](c2ccccc2)(c2ccccc2)c2ccccc2)cc1 (stereo unspecified)    0.492 µM (active)

Prompt line: Item C=C1C(=O)O[C@@H]2/C=C(C)/C=C\[C@@H]3O[C@@]3(C)C[C@@H](O)C12 (stereo partly specified) has what recorded GI50?
Response line: 49.7 µM (inactive)

Prompt line: Item O=C1NC(=O)/C(=C/c2ccc(S(=O)(=O)N/N=C/c3ccccc3)cc2)N1 has what recorded GI50?
Response line: > 100 µM (inactive)

Prompt line: Item O=C(NCCCCCCCCCCCCNC(=O)Nc1cccc2ccccc12)Nc1cccc2ccccc12 has what recorded GI50?
Response line: 14.1 µM (inactive)

Prompt line: Item CCCCC1Cc2cc(O)ccc2-c2nc3cc(O)ccc3n21.CCCCC1Cc2cc(O)ccc2-c2nc3ccc(O)cc3n21 (stereo unspecified) has what recorded GI50?
Response line: 15.2 µM (inactive)

Prompt line: Item Cc1ccc2[nH]c3c(c2c1)C1CCC(C(C)(C)C)CC1C1C(=O)N(c2ccc(Oc4ccccc4)cc2)C(=O)C31 (stereo unspecified) has what recorded GI50?
Response line: 26.6 µM (inactive)

----------
Listing of recorded GI50 by entry.
# System: EKVX
# test: NCI tumour cell line growth inhibition, 48 h
Active and inactive are the calls of the source. No stated cut-off is given here; in the data, active = GI50 up to about 1.1 µM and inactive = higher.

COc1ccc(C(c2cc(OC)c(OC)c(OC)c2)N2C(=O)CCC2C(=O)O)cc1 (stereo not given)    > 100 µM (inactive)
Cc1ccc2c(c1)/C(=N/Nc1ccccc1[N+](=O)[O-])C(=O)N2    2.65 µM (inactive)
CCN(CC)CC(C)(C)C(=O)/C=C/c1ccc(C)cc1    4.88 µM (inactive)
Cc1cc(O)nc2c3c(ccc12)OC(C)(C)C=C3    14.9 µM (inactive)
CN(C)c1ccc(/C=C2\Cc3ccccc3C2=O)cc1Br    76.6 µM (inactive)

Here is another compound to look at.
Prompt line: Item COc1nc2ncc([C@@H](O)[C@H](O)CO)nc2c(=O)[nH]1 has what recorded GI50?
Response line: > 100 µM (inactive)

----------
# Tested on: RPMI-8226
# test: NCI tumour cell line growth inhibition, 48 h
Calls of active or inactive are those of the source. No stated cut-off is given here; in the data, active = GI50 up to about 1.1 µM and inactive = higher.
readout: GI50

These solved cases illustrate the format of a correct answer.
O=C(Nn1c(-c2ccccc2)nc2ccccc2c1=O)c1ccccc1O    51.5 µM (inactive)
CC1CN=C(N(C(=O)Nc2ccc(Cl)c(Cl)c2)c2ccccc2)S1 (stereo not drawn)    64.9 µM (inactive)

Here is another compound to look at.
Prompt line: Item CCCC1CC(=O)NC(=O)C1C(=O)OC(C)(C)C (stereo not drawn) has what recorded GI50?
Response line: > 100 µM (inactive)

----------
# Tested on: U-251
# test: NCI tumour cell line growth inhibition, 48 h
The source made the active and inactive calls. No stated cut-off is given here; in the data, active = GI50 up to about 1.1 µM and inactive = higher.
Write down one outcome, taken from Y for active, N for inactive

Answered examples (2):
CC1CCCCc2nc3c(c(=O)n21)CCCC3 (centres undefined)    N
C=CC(Br)(CBr)CCC(Cl)C(C)C (centres undefined)    N

Prompt line: Could you kindly confirm the outcome this assay logged for Cn1nc(-c2ccccc2)c(N=[N+]=[N-])cc1=O ?
Response line: N

Prompt line: Could you kindly confirm the outcome this assay logged for CN(C)CCNC(=O)Cn1cc([N+](=O)[O-])c(=O)c2ccccc21 ?
Response line: N

Prompt line: Could you kindly confirm the outcome this assay logged for Cn1nc(C(=O)N2CC(CCl)c3c2cc(N)c2ccccc32)cc1NC(=O)Nc1cc(C(=O)N2CC(CCl)c3c2cc(N)c2ccccc32)nn1C (centres undefined) ?
Response line: Y

----------
Listing of recorded GI50 by entry.
# Tested on: ACHN
# test: NCI tumour cell line growth inhibition, 48 h
Calls of active or inactive are those of the source. Cut-off read from the data, not from the text of the source: active = GI50 up to about 1.1 µM and inactive = higher.

Prompt line: Recall the recorded GI50 for CN(C)CCn1c(=O)c2ccc3c4c(nn3CCN(C)C)c3cc(O)ccc3n(c1=O)c24 with ACHN and state it.
Response line: < 0.0308 µM (active)

Prompt line: Recall the recorded GI50 for COC1/C=C/C(C)C(C(C)C(OC)C(C)CCC(=O)C(C)C(C/C=C/N(C)C=O)OC)OC(=O)C=CC2OC2(C)CC(OC)C(OC)C2=CC(=O)O[C@@H](C(C)C(OC)CC(OC)/C=C/C(C)C(O)C1)[C@H]2O (stereo not given in full) with ACHN and state it.
Response line: 0.00313 µM (active)

Prompt line: Recall the recorded GI50 for COc1ccc(NC(=O)NNS(=O)(=O)c2ccc(C)cc2)cc1 with ACHN and state it.
Response line: 91.6 µM (inactive)

Prompt line: Recall the recorded GI50 for Cc1ccccc1N/C(N)=N/C#N with ACHN and state it.
Response line: > 100 µM (inactive)

Prompt line: Recall the recorded GI50 for CN(C)c1nc2sc3c(c2c(=O)o1)CCCC3 with ACHN and state it.
Response line: 34.1 µM (inactive)

----------
# System: HCT-15
readout: GI50 (µM)
Numeric only. Scale: µM

These solved cases illustrate the format of a correct answer.
C(=N\c1ccc2c(c1)Cc1ccccc1-2)/c1ccccn1    48.3
Cc1cc(NC2=NCCO2)c2c(c1C)CCCC2    16.7

Prompt line: Item COC(=O)/C1=C/c2c([nH]c3ccccc23)/C(C(=O)OC)=C\c2c1[nH]c1ccccc21 [CAULERPIN] has what recorded GI50?
Response line: 22

----------
Listing of recorded GI50 by entry.
# System: LXFL 529
# test: NCI tumour cell line growth inhibition, 48 h
Activity calls are given as the source filed them. Rule as the data show it: active = GI50 up to about 1.1 µM and inactive = higher.

These solved cases illustrate the format of a correct answer.
CCCOC(=O)CCC(NC(=O)c1ccc(Nc2nc3ccccc3nc2-c2cccs2)cc1)C(=O)OCCC (centres undefined)    > 100 µM (inactive)
COC(=O)C(C(=O)C(=O)Nc1ccc([N+](=O)[O-])cc1)c1nc2ccc([N+](=O)[O-])cc2nc1O (centres undefined)    43.5 µM (inactive)
CC(C(=O)C(C)O[Si](c1ccccc1)(c1ccccc1)C(C)(C)C)=P(c1ccccc1)(c1ccccc1)c1ccccc1 (centres undefined)    3.3 µM (inactive)
[N-]=[N+]=NC1C(Cl)C(=O)NC(=O)N1[C@H]1C[C@H](O)[C@@H](CO)O1 (some centres undefined)    > 100 µM (inactive)
NC(=O)OCC1=C(COC(N)=O)C(=O)c2c(O)ccc(O)c2C1=O    > 100 µM (inactive)
Cc1ccc(S(=O)(=O)N2CCC3(C(/C=C/c4ccccc4)=Nc4ccccc43)C2c2ccccc2)cc1 (centres undefined)    > 100 µM (inactive)

Prompt line: Item CN(c1nc(=[N+](C)C)ss1)C1CCCCC1 has what recorded GI50?
Response line: > 100 µM (inactive)

Prompt line: Item COCOCC[C@@H]1CC=CC(NC(=O)OCc2ccccc2)C1/C=C/C(=O)CCC1OCCO1 (some centres undefined) has what recorded GI50?
Response line: 22.4 µM (inactive)

Prompt line: Item COc1ccc(NC(=O)CC(=O)n2nc(C)c(/N=N/c3ccccc3C(=O)O)c2C)cc1 has what recorded GI50?
Response line: > 100 µM (inactive)
